Hey, just so you know, these numbers are from the supplement of paper PMC13380429.

Collected relative viability EC50 values appear next to each entry.
- Tested on: U2OS
- methodNotes: relative viability EC50 (midpoint between 100% and the lowest measured viability); higher = less toxic
- recordedConditions: 72 h
property: relative viability EC50

compound: CC(=O)N[C@H]1[C@@H](OC(C)C)O[C@H](COC(C)=O)[C@@H](OC(C)=O)[C@@H]1OC(C)=O
measured: > 10 µM

compound: O=c1c2ccccc2oc2ccccc12
measured: > 10 µM

compound: C[C@@]12CC[C@@H]3[C@@](CC[C@H]4[C@@]3(C)CCC[C@@]4(C)C(=O)O)(CC1=O)C2
measured: > 10 µM

compound: O=C(OCC(O)CO)c1ccccc1Nc1ccnc2cc(Cl)ccc12 (stereo not drawn)
measured: > 10 µM

compound: Cc1c(-c2ccc(-c3ccccc3F)cc2)nc2ccc(F)cc2c1C(=O)O
measured: > 10 µM

compound: O=C(CCCCCN1C(=O)c2cccc3cccc(c23)C1=O)NO
measured: 1.45 µM

compound: O=C(N[C@H](Cc1ccccc1)C(=O)O)c1sc2cc(F)ccc2c1Cl
measured: > 10 µM

compound: CNC(=O)c1ccccc1Nc1nc(Nc2ccc(N3CCOCC3)cc2OC)ncc1Cl
measured: 1.26 µM

compound: Nc1nonc1/C(=N/O)Nc1ccc(F)c(Cl)c1
measured: > 10 µM

compound: COC(=O)/C=C/C(=O)N[C@@H]1CC[C@@]2(O)[C@H]3Cc4ccc(O)c5c4[C@@]2(CCN3CC2CC2)[C@H]1O5
measured: > 10 µM

compound: CN(C)C(=O)Oc1cc(OC(=O)N(C)C)cc(C(O)CNC(C)(C)C)c1 (stereo not drawn)
measured: > 10 µM

compound: OC[C@H]1O[C@@H](Oc2ccc(O)cc2)[C@H](O)[C@@H](O)[C@@H]1O
measured: > 10 µM

compound: Nc1cc(C(F)(F)F)c(-c2cc(N3CCOCC3)nc(N3CCOCC3)n2)cn1
measured: 1.57 µM

compound: OCC(O)CN1CCN(c2ccccc2)CC1 (stereo not drawn)
measured: > 10 µM

compound: O=C(/C=C/c1cccc(S(=O)(=O)Nc2ccccc2)c1)NO
measured: 0.29 µM

compound: N#CCCCSC(=N)N
measured: > 10 µM

compound: Cc1nc2c([nH]1)-c1ccccc1N(C(=O)c1ccc(NC(=O)c3ccccc3-c3ccccc3)cc1)CC2
measured: > 10 µM

compound: CCc1nc(-c2cccc(C)c2)c(-c2ccnc(NC(=O)c3ccccc3)c2)s1
measured: > 10 µM
